Reported abundance fitness is given for each of the following variants.
B1: CD2-associated protein, residues 271 to 331; numbered along this chain, Q9Y5K6 (parent)
chain: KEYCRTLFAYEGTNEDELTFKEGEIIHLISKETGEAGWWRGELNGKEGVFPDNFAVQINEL

variants of: B1; test: abundance fitness (aPCA) (normalised: wild type 0, dead -1); higher = more abundant; growth selection in yeast, the domain comes from the species named; conditions: Homo sapiens
Please give the numeric answer without any surrounding text.

mutantCode	readoutKind	val
E2A	abundance fitness	-0.022
E47N	abundance fitness	-0.205
E22M	abundance fitness	-0.485
D52P	abundance fitness	-0.081
L28Q	abundance fitness	-0.913
T13R	abundance fitness	0.042
V49H	abundance fitness	-0.482
G23C	abundance fitness	-0.45
C4Q	abundance fitness	-0.9
Q57V	abundance fitness	-0.058

Input: Look at this variant and give its reported abundance fitness. `N44H`
Output: -0.03

Input: Look at this variant and give its reported abundance fitness. `G34L`
Output: -0.477

Input: Look at this variant and give its reported abundance fitness. `E60A`
Output: -0.05

Input: Look at this variant and give its reported abundance fitness. `E11W`
Output: -0.261

Input: Look at this variant and give its reported abundance fitness. `A9H`
Output: -0.076

Input: Look at this variant and give its reported abundance fitness. `C4V`
Output: -0.354
